- test-target: Polyprotein P1234 (Chikungunya virus (strain S27-African prototype)) (UniProt Q8JUX6)
- Sequence (Q8JUX6 whole entry, looked up): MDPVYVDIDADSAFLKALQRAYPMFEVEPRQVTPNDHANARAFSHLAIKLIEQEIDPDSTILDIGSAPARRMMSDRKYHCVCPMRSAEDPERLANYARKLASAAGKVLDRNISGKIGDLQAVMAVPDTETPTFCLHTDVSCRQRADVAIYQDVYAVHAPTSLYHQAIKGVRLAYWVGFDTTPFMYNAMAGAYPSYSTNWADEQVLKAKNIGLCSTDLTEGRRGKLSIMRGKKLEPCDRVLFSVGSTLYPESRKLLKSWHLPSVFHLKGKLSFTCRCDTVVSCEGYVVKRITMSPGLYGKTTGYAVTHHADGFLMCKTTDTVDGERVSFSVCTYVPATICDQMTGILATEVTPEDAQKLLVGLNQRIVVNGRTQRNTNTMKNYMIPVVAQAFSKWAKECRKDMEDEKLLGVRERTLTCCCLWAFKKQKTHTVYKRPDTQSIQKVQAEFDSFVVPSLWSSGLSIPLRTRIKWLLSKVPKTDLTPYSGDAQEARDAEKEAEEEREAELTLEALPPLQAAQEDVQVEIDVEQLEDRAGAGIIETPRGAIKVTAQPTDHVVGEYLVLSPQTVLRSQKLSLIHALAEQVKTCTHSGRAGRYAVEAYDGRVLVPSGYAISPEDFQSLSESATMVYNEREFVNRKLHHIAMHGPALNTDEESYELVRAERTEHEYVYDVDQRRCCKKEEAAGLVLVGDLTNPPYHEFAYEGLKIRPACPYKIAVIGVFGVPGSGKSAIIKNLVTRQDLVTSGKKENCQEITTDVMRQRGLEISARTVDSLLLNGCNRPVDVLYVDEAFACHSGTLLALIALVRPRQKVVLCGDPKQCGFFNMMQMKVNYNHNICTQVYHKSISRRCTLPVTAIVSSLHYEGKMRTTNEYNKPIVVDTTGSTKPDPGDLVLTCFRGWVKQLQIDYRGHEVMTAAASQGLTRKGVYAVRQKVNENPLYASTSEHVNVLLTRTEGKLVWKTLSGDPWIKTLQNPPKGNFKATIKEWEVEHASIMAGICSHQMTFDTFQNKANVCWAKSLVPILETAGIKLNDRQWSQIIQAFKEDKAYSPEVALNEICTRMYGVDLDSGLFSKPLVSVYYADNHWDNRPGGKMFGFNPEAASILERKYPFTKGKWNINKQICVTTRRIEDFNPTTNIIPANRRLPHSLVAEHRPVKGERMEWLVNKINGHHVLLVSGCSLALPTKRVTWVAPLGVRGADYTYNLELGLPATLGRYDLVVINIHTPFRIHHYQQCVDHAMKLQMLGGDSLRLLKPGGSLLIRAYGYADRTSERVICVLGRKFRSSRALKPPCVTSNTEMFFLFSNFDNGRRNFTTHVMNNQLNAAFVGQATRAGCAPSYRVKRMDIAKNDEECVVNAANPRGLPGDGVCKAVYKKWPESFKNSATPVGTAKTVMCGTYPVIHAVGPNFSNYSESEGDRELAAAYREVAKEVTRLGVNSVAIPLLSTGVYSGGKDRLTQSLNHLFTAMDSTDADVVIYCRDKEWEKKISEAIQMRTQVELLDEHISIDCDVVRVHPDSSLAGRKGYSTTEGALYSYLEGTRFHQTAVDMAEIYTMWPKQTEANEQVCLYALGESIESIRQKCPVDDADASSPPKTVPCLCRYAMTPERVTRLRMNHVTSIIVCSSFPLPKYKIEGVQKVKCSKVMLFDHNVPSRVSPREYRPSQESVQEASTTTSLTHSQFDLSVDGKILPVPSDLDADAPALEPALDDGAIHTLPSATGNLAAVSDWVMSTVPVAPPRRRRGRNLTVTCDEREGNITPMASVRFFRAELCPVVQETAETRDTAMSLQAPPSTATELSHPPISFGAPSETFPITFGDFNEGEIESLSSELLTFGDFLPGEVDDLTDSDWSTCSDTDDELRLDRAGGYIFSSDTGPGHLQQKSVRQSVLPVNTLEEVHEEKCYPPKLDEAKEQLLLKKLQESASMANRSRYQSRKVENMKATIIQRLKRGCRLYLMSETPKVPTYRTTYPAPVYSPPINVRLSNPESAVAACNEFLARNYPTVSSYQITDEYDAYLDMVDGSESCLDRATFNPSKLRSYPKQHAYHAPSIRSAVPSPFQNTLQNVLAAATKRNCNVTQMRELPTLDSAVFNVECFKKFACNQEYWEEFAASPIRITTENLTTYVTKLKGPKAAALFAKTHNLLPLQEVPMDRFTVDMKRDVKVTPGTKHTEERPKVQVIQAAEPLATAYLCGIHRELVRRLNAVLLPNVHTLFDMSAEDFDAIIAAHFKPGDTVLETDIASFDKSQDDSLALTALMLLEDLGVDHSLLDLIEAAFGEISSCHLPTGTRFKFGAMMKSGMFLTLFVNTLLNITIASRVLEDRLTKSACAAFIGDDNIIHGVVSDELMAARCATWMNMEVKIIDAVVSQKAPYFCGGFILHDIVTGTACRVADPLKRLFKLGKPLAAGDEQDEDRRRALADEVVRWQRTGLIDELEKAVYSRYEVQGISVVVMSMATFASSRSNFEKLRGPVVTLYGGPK
- protocol-summary: Selectivity profile for inhibitors of NSP2Pro chikungunya virus (CHIKV): Endogenous NS2/3 peptide Counterscreen (AID 1964103); further: nearly all actives have a fitted effect of over 55% in size
- condition-summary: Purified CHIKV nsP2 protease, endogenous NS2/3 peptide cleavage; series mostly up to 51 µM
The list shows a part of the results. Results filed as inconclusive are left out. Activity calls are given as the source filed them. The call rests on the fitted dose curve.
Classes used: True (active), False (inactive)

{"compound": "N#CSc1cc(SC#N)c(N)nc1N", "category": "True"}
{"compound": "CCOc1ccc(NC(=O)c2c(NC(=O)Cc3ccccc3)sc3c2CCC(C)C3)cc1 (stereo unspecified)", "category": "True"}
{"compound": "CCC(C)C(=O)OC1C(C)C2(O)C(C=C(CO)CC3(O)C(=O)C(C)=CC32)C2C(C)(C)C12OC(=O)C(C)C (stereo unspecified)", "category": "False"}
{"compound": "CO[C@]1(NC(=O)CSC(F)F)C(=O)N2C(C(=O)O)=C(CSc3nnnn3CCO)CO[C@H]21", "category": "False"}
{"compound": "C[C@@H]1C[C@@H](O)[C@@]23CO[C@]2(CO)C[C@@H](O)CC3[C@@]12CC(c1ccoc1)OC2=O (stereo partly specified)", "category": "False"}
{"compound": "CC1=C(/C=C/C(C)=C/C=C/C(C)=C/C=C/C=C(C)/C=C/C=C(C)/C=C/C2=C(C)CCCC2(C)C)C(C)(C)CCC1", "category": "False"}
{"compound": "Cn1nnnc1Sc1ncnc2n[nH]c(-c3cccc(S(C)(=O)=O)c3)c12", "category": "True"}
{"compound": "Cc1c(S(=O)(=O)O)oc2c1C(=O)C(=O)c1c-2ccc2c1CCCC2(C)C", "category": "False"}
{"compound": "CC(=O)N[C@@H](C(=O)O[C@H]1CCC(C)(C)[C@@H]2CCC3=C(COC3=O)[C@@]12C)C(C)C", "category": "False"}
{"compound": "O=C(O)c1cccc(-n2[nH]c(-c3ccccc3)cc2=O)c1", "category": "False"}
{"compound": "CCOc1ccc(N(Cc2ccccc2)C(=O)c2nc(S(C)(=O)=O)ncc2Cl)cc1", "category": "True"}

// provenance: PubChem BioAssay (NCATS)
